experiment: in vitro; settings: chlorocebus sabaeus, Vero E6 (Vero C1008) cells, pCC50
Recorded CC50 at 48 h by entry

MOLECULE	RELATION_QUALIFIER	CC50 at 48 h, µM
COc1ccc(C[C@@H]2c3cc(OC)c(OC)cc3CC[N@+]2(C)CCC(=O)OCCCCCOC(=O)CC[N@@+]2(C)CCc3cc(OC)c(OC)cc3[C@H]2Cc2ccc(OC)c(OC)c2)cc1OC	>	20
CCN(CC)CCNC(=O)c1cc(Cl)c(NC(=O)COc2ccc(Cl)cc2)cc1OC [CLOXACEPRIDE]	=	2.82
O=C1NCN(c2ccccc2)C12CCN(CCCC(c1ccc(F)cc1)c1ccc(F)cc1)CC2	=	6.92
CN(C)CCOC1=Cc2ccccc2Sc2ccc(Cl)cc21 [ZOTEPINE]	=	12.3
CN(C)CCON=C1c2ccccc2CCc2ccccc21 [NOXIPTILINE]	=	77.6
CCN(CCO)CCC[C@@H](C)Nc1ccnc2cc(Cl)ccc12	>	50.1
CCN(CC)Cc1ccc2cc(COC(=O)Nc3ccc(C(=O)NO)cc3)ccc2c1 [GIVINOSTAT]	=	0.759
C#C[C@]1(O)CC[C@H]2[C@@H]3CCC4=CCCC[C@@H]4[C@H]3CC[C@@]21C [LYNESTRENOL]	=	10.5
N=C(N)c1ccc(C=C2c3ccccc3-c3ccccc32)cc1 [PARANYLINE]	=	2.88
CC[C@@H]1C(=O)N(C)c2cnc(Nc3ccc(C(=O)NC4CCN(C)CC4)cc3OC)nc2N1C1CCCC1 [BI-2536]	=	0.603
CC[C@H]1CN2CC[C@H]1C[C@H]2[C@H](O)c1ccnc2ccc(OC)cc12 [HYDROQUININE]	>	25.1
COC(=O)C1C2CC3c4[nH]c5ccccc5c4CCN3CC2CC(OC(=O)c2cc(OC)c(OC)c(OC)c2)C1OC (configuration not stated)	=	11.5
CC(CN(C)C)CN1c2ccccc2Sc2ccccc21 (configuration not stated)	=	21.4
CC(=O)NC1(c2ccccc2)CCN(CCC(CN(C)C(=O)c2ccccc2)c2ccc(Cl)c(Cl)c2)CC1 (configuration not stated)	=	23.4
C[C@H]1[C@H]2CC[C@H]3[C@@H]4CC=C5C[C@@H](N(C)C)CC[C@]5(C)[C@H]4CC[C@]23CN1C [CONESSINE]	=	34.7
CCOC(=O)[C@H]1O[C@@H]1C(=O)N[C@@H](CC(C)C)C(=O)NCCC(C)C [ALOXISTATIN]	>	100

----------
test system: SARS-CoV-2; assay: microbe, parasite or virus in culture; settings: Severe acute respiratory syndrome coronavirus 2, Vero C1008, 48 h, read-out: pIC50 (converted)
Peptide text beside a SMILES is read from it.
Recorded IC50 by entry

MOLECULE	IC50
CN(C)[C@@H]1C(O)=C(C(N)=O)C(=O)[C@@]2(O)C(O)=C3C(=O)c4c(O)cccc4[C@@](C)(O)[C@H]3[C@H](O)[C@@H]12 [OXYTETRACYCLINE]	> 20 µM
CN[C@@H](C)Cc1ccccc1 [METHAMPHETAMINE]	> 20 µM
CCN(c1cc(-c2ccc(CN3CCOCC3)cc2)cc(C(=O)NCc2c(C)cc(C)[nH]c2=O)c1C)C1CCOCC1 [TAZEMETOSTAT]	> 20 µM
CC(C)C(NC(=O)C(CC(=O)O)NC(=O)C(CCCCN)NC(=O)C(N)CCCNC(=N)N)C(=O)NC(Cc1ccc(O)cc1)C(=O)O (centres undefined) (H-RKDVY-OH; configuration not given here)	> 20 µM

----------
Recorded log10(CC50 at 48 h) by entry
test: in vitro; conditions: chlorocebus sabaeus, Vero E6 (Vero C1008) cells, pCC50
MEASURED_ATTRIBUTE: log10(CC50 at 48 h) (log10 of the value in µM)

COMPOUND	ENDPOINT_RESULT
CCCCc1oc2ccc(NS(C)(=O)=O)cc2c1C(=O)c1ccc(OCCCN(CCCC)CCCC)cc1	0.58
NC(=O)C(c1ccccc1)(c1ccccc1)[C@@H]1CCN(CCc2ccc3c(c2)CCO3)C1	1.75
CCCCCCC(C)(C)c1cc(O)c([C@H]2CC(=O)[C@H]3C[C@@H]2C3(C)C)c(OC(=O)/C=C/C(=O)O)c1	0.88
CN1CCCN(C(c2ccccc2)c2ccc(Cl)cc2)CC1 (stereo not drawn)	1.32
CC1(C)CCC(c2ccc(Cl)cc2)=C(CN2CCN(c3ccc(C(=O)NS(=O)(=O)c4ccc(N[C@H](CCN5CCOCC5)CSc5ccccc5)c(S(=O)(=O)C(F)(F)F)c4)cc3)CC2)C1	0.67
Nc1nc2nn[nH]c2c(=O)[nH]1	1.37
CC(C)(C)c1cc(C(C)(C)C)c(NC(=O)c2c[nH]c3ccccc3c2=O)cc1O	0.66
NC(=O)C1CN(CCCCC(c2ccc(F)cc2)c2ccc(F)cc2)CCN1CC(=O)Nc1c(Cl)cc(N)cc1Cl (stereo not drawn)	0.98
CN1CCN(CCCN2c3ccccc3Sc3ccccc32)CC1	1.16
CNCC(O)CC12CCC(c3ccccc31)c1ccccc12 (stereo not drawn)	1.45
COc1ccc([C@@H](Cc2ccncc2)c2ccccc2)cc1OC1CCCC1	1.37
c1ccc2c(c1)Sc1ccccc1N2CC1CN2CCC1CC2 (stereo not drawn)	0.89
OCCN1CCN(CC/C=C2/c3ccccc3Sc3ccc(Cl)cc32)CC1	0.82
CN(C(=O)CN(CCO)CC(=O)N(C)C(C)(C)Cc1ccccc1)C(C)(C)Cc1ccccc1	1.42
CCC1CN2CCC1CC2C(O)c1ccnc2ccc(OCCC(C)C)cc12 (stereo not drawn)	1.05
OC(CNCC(O)C1CCc2cc(F)ccc2O1)C1CCc2cc(F)ccc2O1 (stereo not drawn)	0.94
COc1ccc(C#Cc2ccccc2)c(CCC(C)N(C)CCc2ccc(OC)c(OC)c2)c1 (stereo not drawn)	0.68
CCC(CC)COC(=O)[C@H](C)N[P@](=O)(OC[C@H]1O[C@@](C#N)(c2ccc3c(N)ncnn23)[C@H](O)[C@@H]1O)Oc1ccccc1	1.98
CN1CCC(OC(=O)C(Oc2ccc(Cl)cc2)Oc2ccc(Cl)cc2)CC1 [LIFIBRATE]	1.58

----------
Recorded CC50 at 48 h by entry
experiment: in vitro; conditions: chlorocebus sabaeus, Vero E6 (Vero C1008) cells, pCC50
MEASURED_ATTRIBUTE: CC50 at 48 h (µM)

MOLECULE	MEASURED_ATTRIBUTE	ENDPOINT_RESULT
CNCc1ccc(-c2cc(-c3nc(-c4ccc(S(=O)(=O)C(C)C)cc4)cnc3N)on2)cc1	CC50 at 48 h	10.2
C#CC1(OC(C)=O)CCC2C3CCC4=C/C(=N/O)CCC4C3CCC21CC (stereo not given)	CC50 at 48 h	20.9
CN(C)CCCN1c2ccccc2Sc2ccccc21	CC50 at 48 h	25.7
C[C@H]1c2ccccc2[C@@H](CCCN(C)C)c2cc(C(F)(F)F)ccc21	CC50 at 48 h	12
CCOC(=O)Oc1c(OC)cc(C(=O)OC2CC3CN4CCc5c([nH]c6cc(OC)ccc56)C4CC3C(C(=O)OC)C2OC)cc1OC (stereo not given)	CC50 at 48 h	8.91

----------
test system: SARS-CoV-2; assay: microbe, parasite or virus in culture; conditions: Severe acute respiratory syndrome coronavirus 2, Vero C1008, 48 h
pIC50: −log10 of the molar value.
MEASURED_ATTRIBUTE: pIC50

COMPOUND	ENDPOINT_RESULT
CCN1CCCC1CNC(=O)c1cc(S(N)(=O)=O)ccc1OC (centres undefined) [SULPIRIDE]	< 4.70
CCC(C/C=C/c1ccccc1)(c1ccccc1)N(C)CC1CC1 (centres undefined) [IGMESINE]	< 4.70
C[C@]12CC[C@H](O)C[C@@H]1CC[C@@H]1C2CC[C@]2(C)[C@@H](C3=CC(=O)OC3)CC[C@]12O (some centres undefined)	< 4.70
Cc1cc(/N=C(\Nc2nccs2)NC2CCCCC2)c2ccccc2n1 [TIMEGADINE]	< 4.70
CCOC(=O)C(CCc1ccccc1)NC(C)C(=O)N1CC2(CC1C(=O)O)SCCS2 (centres undefined)	< 4.70
CN(C)CCCC1c2ccccc2Nc2ccc(Cl)cc21 (centres undefined) [CLOMACRAN]	< 4.70
O[C@H]1CC[C@H](Nc2ncc3nc(Nc4c(F)cc(F)cc4F)n([C@H]4CCOC4)c3n2)CC1 [TANZISERTIB]	< 4.70
C[C@H](Cc1cc2c(c(C(N)=O)c1)N(CCCO)CC2)NCCOc1ccccc1OCC(F)(F)F [SILODOSIN]	< 4.70
C[N+](C)(C)CCCCCCCCCC[N+](C)(C)C [DECAMETHONIUM]	< 4.70

----------
Recorded IC50 by entry
system: SARS-CoV-2; assay: microbe, parasite or virus in culture; details: Severe acute respiratory syndrome coronavirus 2, Vero C1008, 48 h

COMPOUND	IC50
COc1cc2c(cc1OC)C(=O)C(CC1CCN(Cc3ccccc3)CC1)C2 (centres undefined) [DONEPEZIL]	> 20 µM
NS(=O)(=O)c1cc2c(cc1Cl)N=CNS2(=O)=O [CHLOROTHIAZIDE]	> 20 µM
NCC1CCC(C(=O)O)CC1 (centres undefined)	> 20 µM
CS(=O)(=O)CCCn1c(Cn2c(=O)n(CC(F)(F)F)c3ccncc32)cc2cc(Cl)ccc21 [RILEMATOVIR]	> 20 µM
CN(C(=O)C(c1ccccc1)c1ccccc1)[C@H](CN1CC[C@H](O)C1)c1ccccc1 [ASIMADOLINE]	> 20 µM
C[C@]12C[C@H]3S[C@H]3C[C@@H]1CC[C@@H]1[C@@H]2CC[C@]2(C)[C@@H](O)CC[C@@H]12 [EPITIOSTANOL]	> 20 µM
CC(C)OC(=O)[C@H](C)NP(=O)(OC[C@H]1O[C@@H](n2ccc(=O)[nH]c2=O)[C@](C)(Cl)[C@@H]1O)Oc1ccccc1 (some centres undefined)	> 20 µM
CCCCCC(O)c1cccc(OCc2ccc3ccccc3n2)c1 (centres undefined) [REV-5901]	> 20 µM
CS(=O)(=O)c1ccc(-c2cnc(N)c(-c3ccc(C(F)(F)F)nc3)c2)cc1 [MMV-048]	> 20 µM
CCNC(=O)c1noc(-c2cc(C(C)C)c(O)cc2O)c1-c1ccc(CN2CCOCC2)cc1 [LUMINESPIB]	> 20 µM
N#CC(CCN1CCC(C(=O)O)(c2ccccc2)CC1)(c1ccccc1)c1ccccc1 [DIFENOXIN]	> 20 µM
COC(=O)c1ccc2c(c1)NC(=O)/C2=C(\Nc1ccc(N(C)C(=O)CN2CCN(C)CC2)cc1)c1ccccc1 [NINTEDANIB]	> 20 µM
CC[N+](C)(C)c1cccc(O)c1 [EDROPHONIUM]	> 20 µM
Cc1nc(Nc2ncc(C(=O)Nc3c(C)cccc3Cl)s2)cc(N2CCN(CCO)CC2)n1 [DASATINIB]	> 20 µM
Nc1ccn([C@@H]2S[C@H](CO)[C@@H](O)[C@@H]2O)c(=O)n1 [THIARABINE]	> 20 µM
CCN(CC)CCOC(c1ccccc1)c1ccccc1	> 20 µM
CC(=O)OCC(=O)[C@@]1(O)CC[C@H]2[C@@H]3CCC4=CC(=O)CC[C@]4(C)[C@H]3C(=O)C[C@@]21C [CORTISONE ACETATE]	> 20 µM
CC[C@@]1(O)C(=O)OCc2c1cc1n(c2=O)Cc2c-1nc1ccccc1c2CCNC(C)C [BELOTECAN]	> 20 µM
C=CCOC(Cn1ccnc1)c1ccc(Cl)cc1Cl (centres undefined) [ENILCONAZOLE]	> 20 µM
C[N+]12CCC(CC1)C(OC(=O)C(O)(c1ccccc1)c1ccccc1)C2 (centres undefined)	> 20 µM
C/C=C1\C(=O)C[C@H]2[C@@H]3CCC4=CC(=O)CC[C@]4(C)[C@H]3CC[C@]12C [GUGGULSTERONE]	> 20 µM
Nc1ncn([C@@H]2O[C@H](CO)[C@@H](O)[C@H]2O)c(=O)n1 [AZACITIDINE]	> 20 µM
CN1C(=O)CN=C(c2ccccc2F)c2cc([N+](=O)[O-])ccc21 [FLUNITRAZEPAM]	> 20 µM
COc1cc2[nH]c(C)c(CCN3CCN(c4ccccc4)CC3)c2cc1OC [OXYPERTINE]	> 20 µM
CC1C2Cc3ccc(O)cc3C1(C)CCN2C (centres undefined)	> 20 µM
CC1(C)CC[C@]2(C(=O)O)CC[C@]3(C)C(=CC[C@@H]4[C@@]5(C)CC[C@H](O)C(C)(C)[C@@H]5CC[C@]43C)[C@@H]2C1 [OLEANOLIC_ACID]	> 20 µM
CN(C)CCOC1=Cc2ccccc2Sc2ccc(Cl)cc21 [ZOTEPINE]	> 100 µM
C[N+]1(C)CCOC(O)(c2ccc(-c3ccc(C4(O)C[N+](C)(C)CCO4)cc3)cc2)C1 (centres undefined) [HEMICHOLINIUM-3]	> 20 µM
CC1(C)CC=C(c2nc(C3CC(C)(C)OC(C)(C)C3)ccc2NC(=O)c2nc(C#N)c[nH]2)CC1 [EDICOTINIB]	> 20 µM
CN1C(=O)CC(=O)N(c2ccccc2)c2cc(Cl)ccc21 [CLOBAZAM]	> 20 µM
O=[N+]([O-])c1cnc(-c2ccc(F)cc2)n1CCO [FLUNIDAZOLE]	> 20 µM
CC(C)c1ncc([N+](=O)[O-])n1C [IPRONIDAZOLE]	> 20 µM
C[C@@H](N)[C@@H](O)c1ccccc1 [(1S,2R)-PHENYLPROPANOLAMINE]	> 20 µM
OCc1ccccc1O[C@@H]1O[C@H](CO)[C@@H](O)[C@H](O)[C@H]1O [SALICIN]	> 20 µM
